Origin of measurements: the MegaScale stability set (Tsuboyama et al. 2023)

B1: HEEH_KT_rd6_3546 (parent)
chain: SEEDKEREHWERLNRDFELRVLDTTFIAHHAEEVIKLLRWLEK

# Variants of: B1
# Measurement Notes: folding stability dG (cDNA display proteolysis); higher = more stable
# Assay Setup: PBS, room temperature
folding stability dG by entry:
// units = kcal/mol; emit number, no label

Recorded folding stability dG, per entry:
> print(dat)
   alteration  unit.text  quantitative.result
1        T25Q   kcal/mol                0.911
2        H29L   kcal/mol                 1.59
3        D23K   kcal/mol                  1.6
4         S1P   kcal/mol                 1.43
5        R39E   kcal/mol                0.969

[Q] Reported folding stability dG, variant V21Q : ____
[A] 1.3

[Q] Reported folding stability dG, variant R12S : ____
[A] 1.43

[Q] Reported folding stability dG, variant V21R : ____
[A] 1.41
